Data origin: the supplement of paper PMC11451515

Please go through the items and note down their cell viability.
- Tested on: NOMO1
- experiment.description: cell viability relative to DMSO control; higher = less cytotoxic
- condition.notes: RPMI 5 mM glucose + 10% dialyzed FBS; 48 h; 0.000781 µM
Answers are plain numbers, in %.

Some entries whose results are on file:
CC(C)C(=O)Oc1ccc(CO)cc1[C@H](CCN(C(C)C)C(C)C)c1ccccc1	78.3
COc1ncc(-c2ccc3nccc(-c4ccnnc4)c3c2)cc1N[S+](=O)([O-])c1ccc(F)cc1F	104
NC(=O)c1ccc(I)c([N+](=O)[O-])c1	123
C\C1=C(\C=C(C#N)/C(=O)N1)C2=C[N]3C=CN=C3C=C2	78.8
C[C@]1(c2nc3c(C(N)=O)cccc3[nH]2)CCCN1	62.8

Would you mind giving cell viability for every compound in the list below?
1. COc1ccc(C(C)=O)c(O)c1
2. CC(C)C1=C(O)C=C(O)C(=C1)C/2=N/NC(=O)N2C3=CC4=C(C=C3)[N](C)C=C4
3. COc1cc2c(cc1OC)CC(=O)N(CCCN(C)C[C@H]1Cc3cc(OC)c(OC)cc31)CC2.Cl
4. C\C1=C(\C=C(\C#N)C(=O)N1)C2=CC=NC=C2
5. COc1cc2ncnc(Nc3ccc(F)c(Cl)c3)c2cc1NC(=O)/C=C/CN1CCCCC1
6. O=C(Nc1ccccc1-c1cn2c(CN3CCNCC3)csc2n1)c1cnc2ccccc2n1
7. CC[C@H](C)[N]1C=C(C)C2=C1C=C(C=C2C(=O)NC\C3=C(C)\C=C(\C)NC3=O)C4=CC=C(N=C4)N5CCNCC5
8. CN(NC(=O)CC(=O)NN(C)C(=S)c1ccccc1)C(=S)c1ccccc1

1: 111; 2: 120; 3: 111; 4: 112; 5: 95.7; 6: 86.3; 7: 116; 8: 83.4

----------
Please go through the items and note down their cell viability.
- Test system: P12-Ichikawa
- experiment.description: cell viability relative to DMSO control; higher = less cytotoxic
- condition.notes: HPLM + 10% dialyzed FBS; 48 h; 15.4 µM
Give bare numbers, in %.

Some entries whose results are on file:
CSCC[C@@H](NC(=O)[C@@H](Cc1ccccc1)NC(=O)CNC(=O)CNC(=O)[C@@H](N)Cc1ccc(O)cc1)C(=O)O	120
CN(C)C1=CC=C(C=C1)C(C2=CC=C(C=C2)N(C)C)=C/3\C=C/C(/C=C3)=[N+](C)C	1.9
N=C(NCCCCCCNC(=N)NC(=N)Nc1ccc(Cl)cc1)NC(=N)Nc1ccc(Cl)cc1	97.9
CCC(C)(C)c1ccc(CC(C)CN2C[C@@H](C)O[C@@H](C)C2)cc1 (stereo partly drawn)	87.8

Would you mind giving cell viability for every molecule in the list below?
1. C/C=C1\C2C=C(C)CC1(N)c1ccc(=O)[nH]c1C2 (stereo not drawn)
2. COC(=O)[C@@H]1[C@H]2C[C@H]3c4[nH]c5ccccc5c4CCN3C[C@@H]2CC[C@@H]1O
3. C\C1=C(\C=C(C#N)/C(=O)N1)C2=C[N]3C=CN=C3C=C2
4. CN1CCN(c2ccc([N+](=O)[O-])c3no[n+]([O-])c23)CC1
5. C[C@@]12C[C@@]3(O)O[C@@H](O1)[C@]1(COC(=O)c4ccccc4)[C@H]3C[C@@]12O[C@@H]1O[C@H](CO)[C@@H](O)[C@H](O)[C@H]1O

106
14.4
91.5
95.2
97.5

Would you mind giving cell viability for every molecule in the list below?
1. OC1=CC2=C(C(=C1)O)C(=O)\C=C(/O2)C3=CC=CC=C3
2. C\C1=C(\C=C(\C#N)C(=O)N1)C2=CC=NC=C2
3. COc1cc2c(cc1OC)CC(=O)N(CCCN(C)C[C@H]1Cc3cc(OC)c(OC)cc31)CC2.Cl
4. O=C1c2c(O)ccc(O)c2C(=O)c2c(NCCNCCO)ccc(NCCNCCO)c21

1: 77.9; 2: 109; 3: 108; 4: 7

Would you mind giving cell viability for every molecule in the list below?
1. C/C=C(/C)C(=O)O[C@H]1C(C)=C[C@]23C(=O)[C@@H](C=C(CO)[C@@H](O)[C@]12O)[C@H]1[C@@H](C[C@H]3C)C1(C)C
2. Cc1cn(-c2cc(NC(=O)c3ccc(C)c(Nc4nccc(-c5cccnc5)n4)c3)cc(C(F)(F)F)c2)cn1
3. C=C(C)[C@H]1Cc2c(ccc3c2O[C@@H]2COc4cc(OC)c(OC)cc4[C@@H]2C3=O)O1
4. NC(=O)c1ccc(I)c([N+](=O)[O-])c1

1. 79.7
2. 9.96
3. 19.7
4. 128

Report cell viability for N#Cc1c(NC(=O)c2cccc3ccccc23)sc2c1CCCC2 please.
28.2

----------
- Tested on: P12-Ichikawa
- experiment.description: cell viability relative to DMSO control; higher = less cytotoxic
- condition.notes: RPMI 5 mM glucose + 10% dialyzed FBS; 48 h; 46.1 µM
Please go through the items and note down their cell viability.
Please append the unit to your numeric answer.

O=C(c1ccc(Nc2nccc(-c3cc4ccccc4s3)n2)cc1)N1CCC(N2CCCC2)CC1	7%

Would you mind giving cell viability for every compound in the list below?
1. CCOC(=O)\C1=C(/C)N\C2=C(C1C3=CC=C(C=C3)C4=CC=CC=C4)\C(=O)CC(C)(C)C2 (centres undefined)
2. COc1cc2ncnc(Nc3cc(Br)c(O)c(Br)c3)c2cc1OC
3. COc1ccc(-c2nc(N3CCOCC3)c3sc(CN(C)c4ncc(C(=O)NO)cn4)cc3n2)cn1

1: 95.3%; 2: 94.9%; 3: 5.83%

----------
- Test system: P12-Ichikawa
- experiment.description: cell viability relative to DMSO control; higher = less cytotoxic
- condition.notes: RPMI 5 mM glucose + 10% FBS; 48 h; 0.0632 µM
observation.type: cell viability (%)
Numbers only, in %.

CN(C)[C@H]\1[C@@H]2C[C@H]3C(=C(O)\[C@]2(O)C(=O)\C(=C1O)C(N)=O)/C(=O)C4=C(O)C=CC=C4[C@@]3(C)O	118

Would you mind giving cell viability for every compound in the list below?
1. COc1ncc(-c2ccc3nccc(-c4ccnnc4)c3c2)cc1N[S+](=O)([O-])c1ccc(F)cc1F
2. Cc1[nH]c2ccccc2c1CCNCc1ccc(/C=C/C(=O)NO)cc1
3. CNC1CCC(N(Cc2cccc(-c3ccncc3)c2)C(=O)c2sc3c(F)ccc(F)c3c2Cl)CC1 (centres undefined)

83.3
128
110

----------
- System: SEM cells
- experiment.description: cell viability relative to DMSO control; higher = less cytotoxic
- condition.notes: RPMI 5 mM glucose + 10% FBS; 48 h; 0.000781 µM
Decision: cell viability beneath 90% gives YES; cell viability meeting or exceeding 90% gives NO.

O=c1[nH]c2ccccc2n1C1CCN(Cc2ccc(-c3nc4cc5nc[nH]c5cc4nc3-c3ccccc3)cc2)CC1	YES
COc1ncc(-c2ccc3nccc(-c4ccnnc4)c3c2)cc1N[S+](=O)([O-])c1ccc(F)cc1F	YES
O=C(O)c1ccc2c(c1)nc(Nc1cccc(Cl)c1)c1ccncc12	NO

Is cell viability of NC\1=N\C(=O)N(\C=C1)[C@@H]2O[C@H](CO)[C@@H](O)[C@H]2O strictly below 90%?
YES

Is cell viability of CNC(=O)c1ccc(N2C(=S)N(c3ccc(C#N)c(C(F)(F)F)c3)C(=O)C23CCC3)cc1F strictly below 90%?
YES

Is cell viability of CNc1nccc(-c2cccnc2Oc2cc(C(=O)Nc3cccc(C(F)(F)F)c3)ccc2C)n1 strictly below 90%?
NO

Is cell viability of CC(C)(Oc1ccc(C2CC2(Cl)Cl)cc1)C(=O)O (stereo not drawn) strictly below 90%?
NO

----------
- System: P12-Ichikawa
- experiment.description: cell viability relative to DMSO control; higher = less cytotoxic
- condition.notes: RPMI 5 mM glucose + 10% dialyzed FBS; 48 h; 0.0211 µM
Please go through the items and note down their cell viability.
Numbers only, in %.

Some entries whose results are on file:
CN[C@@H]1[C@H](O)[C@H](NC)[C@H]2O[C@@]3(O)C(=O)C[C@@H](C)O[C@H]3O[C@@H]2[C@H]1O	116
C\C1=C(\C=C(C#N)/C(=O)N1)C2=C[N]3C=CN=C3C=C2	78.7
N[C@H](CSC(c1ccccc1)(c1ccccc1)c1ccccc1)C(=O)O	116

Would you mind giving cell viability for every compound in the list below?
1. CCN1\C=C(\C(O)=O)C(=O)C2=CC=C(C)N=C12
2. Cc1cc(C(C)(C)C)c(O)c(C)c1CC1=NCCN1
3. CN1CCCN=C1/C=C/c1cccs1.O=C(O)c1cc2ccccc2c(Cc2c(O)c(C(=O)O)cc3ccccc23)c1O
4. COc1cc2c(cc1OC)CC(=O)N(CCCN(C)C[C@H]1Cc3cc(OC)c(OC)cc31)CC2.Cl
5. COc1ccc(C(C)=O)c(O)c1
6. O=C(Nc1c(Cl)cncc1Cl)c1ccc(OC(F)F)c(OCC2CC2)c1

1: 91; 2: 95.5; 3: 115; 4: 115; 5: 104; 6: 108

Would you mind giving cell viability for every compound in the list below?
1. Cc1cnc(NC(=O)Nc2cc(Br)c(C)cc2OC[C@@H]2CNCCO2)cn1
2. C[S+]([O-])(=O)C1=CC=C(C=C1)C/2=C(/C(=O)OC2)C3=CC=CC=C3
3. CC(N)C12CC3CC(CC(C3)C1)C2 (centres undefined)
4. Cn1cnc2c1c(=O)[nH]c(=O)n2C

121
110
101
102
